Quick note: these are pIC50 numbers for system: Histone deacetylase 1 (Homo sapiens, UniProt Q13547)
Sequence (Q13547 whole entry): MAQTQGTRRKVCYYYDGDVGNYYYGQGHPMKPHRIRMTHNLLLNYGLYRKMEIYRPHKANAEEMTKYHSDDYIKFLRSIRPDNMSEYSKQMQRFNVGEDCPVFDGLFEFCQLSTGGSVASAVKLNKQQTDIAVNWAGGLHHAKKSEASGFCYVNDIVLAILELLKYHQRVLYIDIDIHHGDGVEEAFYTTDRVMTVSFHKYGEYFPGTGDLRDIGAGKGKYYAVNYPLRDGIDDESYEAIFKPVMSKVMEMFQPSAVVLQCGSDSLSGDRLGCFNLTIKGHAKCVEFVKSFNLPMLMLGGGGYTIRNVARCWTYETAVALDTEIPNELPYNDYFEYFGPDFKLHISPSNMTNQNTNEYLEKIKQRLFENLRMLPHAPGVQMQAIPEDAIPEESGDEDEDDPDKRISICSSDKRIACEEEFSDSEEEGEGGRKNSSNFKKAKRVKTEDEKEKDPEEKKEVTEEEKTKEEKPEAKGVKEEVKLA
Numbers only, as −log10 of the molar value.

Nc1nc2ncc(CNc3ccc(C(=O)N[C@@H](CCC(=O)NCCCCCCC(=O)Nc4cc(-c5cccs5)ccc4N)C(=O)O)cc3)nc2c(=O)[nH]1 ... 6.36

Required: pIC50, one value per compound below.
1. Nc1nc2ncc(CNc3ccc(C(=O)N[C@@H](CCC(=O)NCCCCCCCCC(=O)Nc4cc(-c5cccs5)ccc4N)C(=O)O)cc3)nc2c(=O)[nH]1
2. Nc1nc2ncc(CNc3ccc(C(=O)NO)cc3)nc2c(=O)[nH]1

OUTPUT:
1. 6.51
2. 5.62
